ASSAYED SYSTEM: T1, human CD33 (human, UniProt P20138 18-364)
T1 construct: CD33 on human primary dendritic cells, macrophages, monocytes and T cells and on CHO cells expressing recombinant human CD33; also called Siglec-3; hCD33
T1 sequence (P20138 18-364): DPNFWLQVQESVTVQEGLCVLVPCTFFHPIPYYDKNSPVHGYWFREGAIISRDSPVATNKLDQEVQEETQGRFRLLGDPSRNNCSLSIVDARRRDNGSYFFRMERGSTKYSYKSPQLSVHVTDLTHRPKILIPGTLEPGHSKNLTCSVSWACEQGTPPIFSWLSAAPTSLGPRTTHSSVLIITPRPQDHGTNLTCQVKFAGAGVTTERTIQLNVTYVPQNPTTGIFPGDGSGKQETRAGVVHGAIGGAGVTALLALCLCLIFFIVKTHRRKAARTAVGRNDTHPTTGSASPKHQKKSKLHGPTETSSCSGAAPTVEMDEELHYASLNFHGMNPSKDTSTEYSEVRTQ
MEASUREMENT DESCRIPTION: flow cytometry, human primary monocytes;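 also: binding of anti-CD33 antibodies at 10 ug/ml to human primary monocytes, 1 h on ice, detected by PE-labelled secondary antibody, flow cytometry readout as mean fluorescence intensity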
Design: reference not given here
ASSAY READOUT: Monocyte MFI
Answer with a bare number; do not write a unit.

// worked examples, Monocyte MFI included
Recorded Monocyte MFI for C-61 (antibody, V domains shown, human IgG1) VH: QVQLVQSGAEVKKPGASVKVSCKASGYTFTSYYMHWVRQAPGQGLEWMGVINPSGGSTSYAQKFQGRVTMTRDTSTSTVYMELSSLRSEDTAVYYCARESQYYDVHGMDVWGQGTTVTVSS VL: EIVLTQSPGTLSLSPGERATLSCRASQSVSSSYLAWYQQKPGQAPRLLIYGASSRATGIPDRFSGSGSGTDFTLTISRLEPEDFAVYYCQQYYGLPLTFGGGTKVEIK , please?
122

# iterate: C-11 (antibody, V domains shown, human IgG1) VH: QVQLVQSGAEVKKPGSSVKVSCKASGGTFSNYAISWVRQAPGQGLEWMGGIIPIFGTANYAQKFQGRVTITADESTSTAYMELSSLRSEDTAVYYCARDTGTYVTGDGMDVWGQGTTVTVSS VL: EIVMTQSPATLSVSPGERATLSCRASQSVSSNLAWYQQKPGQAPRLLIYSASTRATGIPARFSGSGSGTEFTLTISSLQSEDFAVYYCQQYIVLPITFGGGTKVEIK
106

Query binder follows.
Recorded Monocyte MFI for C-75 (antibody, V domains shown, human IgG1) VH: EVQLLESGGGLVQPGGSLRLSCAASGFTFSSYAMSWVRQAPGKGLEWVSAISASGGSTYYADSVKGRFTISRDNSKNTLYLQMNSLRAEDTAVYYCARLHMTGTASSGMDVWGQGTTVTVSS VL: DIVMTQSPDSLAVSLGERATINCKSSQSVLYSSNNKNYLAWYQQKPGQAPRLLIYGASSRATGIPDRFSGSGSGTDFTLTISRLEPEDFAVYYCQQDYSSPLTFGGGTKVEIK , please?
686

Measured values drawn from patent US20220281976A1 for this set.
